Origin of values: the RNAGym collection of RNA variant scans (doi:10.1126/science.aae0568)

Reported yeast fitness values for a set of variants
B1: tRNA (parent)
chain: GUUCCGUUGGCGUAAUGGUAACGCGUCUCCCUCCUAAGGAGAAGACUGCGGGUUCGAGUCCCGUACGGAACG

Variants of: B1
Assay: yeast fitness relative to wild type (ratio to wild type); higher = fitter; tRNA-Arg(CCU), competitive growth, 37 C, YPD
This sample holds only a part of the variants without activity.
measurementType: yeast fitness

mutationlabel="U2C C27U A43G G56A" measurementtype="yeast fitness" valueprefix=≤ measvalue=0.5
mutationlabel="G56U A65U G68C" measurementtype="yeast fitness" valueprefix=≤ measvalue=0.5
mutationlabel="C11U A20G C22A G23C U28G A43G A57G" measurementtype="yeast fitness" valueprefix=≤ measvalue=0.5
mutationlabel="U3C U7A" measurementtype="yeast fitness" valueprefix== measvalue=0.772
mutationlabel="U13A G17A U32A" measurementtype="yeast fitness" valueprefix=≤ measvalue=0.5
mutationlabel="U19G A43C G63U U64A" measurementtype="yeast fitness" valueprefix=≤ measvalue=0.5
mutationlabel="U3G A15U C46G C61A" measurementtype="yeast fitness" valueprefix=≤ measvalue=0.5
mutationlabel="U53G G63A" measurementtype="yeast fitness" valueprefix== measvalue=0.553
mutationlabel="C5U U19C C55A G58C" measurementtype="yeast fitness" valueprefix=≤ measvalue=0.5
mutationlabel="C4G C22G G67C" measurementtype="yeast fitness" valueprefix== measvalue=0.528
mutationlabel="C4G A65C A69C" measurementtype="yeast fitness" valueprefix=≤ measvalue=0.5
mutationlabel="G6A A20C G23C C27A" measurementtype="yeast fitness" valueprefix=≤ measvalue=0.5
mutationlabel="A43U C55U" measurementtype="yeast fitness" valueprefix== measvalue=0.768
mutationlabel="C29U A45C U54A C55A" measurementtype="yeast fitness" valueprefix=≤ measvalue=0.5
mutationlabel="C30A G44A" measurementtype="yeast fitness" valueprefix== measvalue=0.88
mutationlabel="U2A U16G A43C U54G" measurementtype="yeast fitness" valueprefix=≤ measvalue=0.5
mutationlabel="C5A A21C C34G G52A C62G" measurementtype="yeast fitness" valueprefix== measvalue=0.565
mutationlabel="U54A A57U G63C A69U" measurementtype="yeast fitness" valueprefix=≤ measvalue=0.5
mutationlabel="A20U G44C C60A" measurementtype="yeast fitness" valueprefix== measvalue=0.617
mutationlabel="G9A A15U A20G G44C C61U" measurementtype="yeast fitness" valueprefix=≤ measvalue=0.5
mutationlabel="U2C C29A A57C" measurementtype="yeast fitness" valueprefix=≤ measvalue=0.5
mutationlabel="G12C A14C A20U A21U C33A G48A C62U" measurementtype="yeast fitness" valueprefix=≤ measvalue=0.5
mutationlabel="U2A G39C A70G" measurementtype="yeast fitness" valueprefix=≤ measvalue=0.5
mutationlabel="U32G U35G A36C A37G C61G A70G" measurementtype="yeast fitness" valueprefix=≤ measvalue=0.5
mutationlabel="U7C G38C C49A" measurementtype="yeast fitness" valueprefix== measvalue=0.618
mutationlabel="C30U C60U" measurementtype="yeast fitness" valueprefix== measvalue=0.734
mutationlabel="C4U U8A" measurementtype="yeast fitness" valueprefix== measvalue=0.66
mutationlabel="A21G U59A U64A" measurementtype="yeast fitness" valueprefix=≤ measvalue=0.5
mutationlabel="C22U C31G C49U A65G" measurementtype="yeast fitness" valueprefix=≤ measvalue=0.5
mutationlabel="C22G U59A C66A" measurementtype="yeast fitness" valueprefix== measvalue=0.554
mutationlabel="C46U C62U" measurementtype="yeast fitness" valueprefix== measvalue=1
mutationlabel="C4G C24A C46U C60A" measurementtype="yeast fitness" valueprefix== measvalue=0.521
mutationlabel="A15G C49G G63C" measurementtype="yeast fitness" valueprefix== measvalue=0.594
mutationlabel="U3A G9A" measurementtype="yeast fitness" valueprefix== measvalue=0.977
mutationlabel="C29G C46U A57G" measurementtype="yeast fitness" valueprefix== measvalue=0.642
mutationlabel="C34U G51C G58C" measurementtype="yeast fitness" valueprefix=≤ measvalue=0.5
mutationlabel="U3A U53C U54C" measurementtype="yeast fitness" valueprefix=≤ measvalue=0.5
mutationlabel="A20C C22G C33U A45U" measurementtype="yeast fitness" valueprefix=≤ measvalue=0.5
mutationlabel="C11A C30U C49G" measurementtype="yeast fitness" valueprefix== measvalue=0.579
mutationlabel="C4A U7A A14G G17C" measurementtype="yeast fitness" valueprefix=≤ measvalue=0.5
mutationlabel="A21G C30A" measurementtype="yeast fitness" valueprefix== measvalue=1
mutationlabel="C34A G56C" measurementtype="yeast fitness" valueprefix=≤ measvalue=0.5
mutationlabel="G17A G68A" measurementtype="yeast fitness" valueprefix== measvalue=0.81
mutationlabel="A15C C31G C55A C66U" measurementtype="yeast fitness" valueprefix=≤ measvalue=0.5
mutationlabel="U2G G12U A43U" measurementtype="yeast fitness" valueprefix== measvalue=0.631
mutationlabel="C22A C27G A43U C60A" measurementtype="yeast fitness" valueprefix== measvalue=0.557
